Source listed as ChEMBL document CHEMBL1126976.

# Tested on: Saccharomyces cerevisiae
# assay.overview: The compound was tested for inhibition of Polyphenylalanine synthesis in Saccharomyces cerevisiae ribosome system at concentration of 1*10e-3 M; values are per cent of control
# level, % of control per entry
Just the number please, in %, no unit attached.

CSC[S@@+]([O-])CC(CO)NC(=O)/C=C/c1c(C)[nH]c(=O)[nH]c1=O (some centres undefined) ... 15.5
CSC1OC(C(NC(=O)C(Cl)Cl)C(C)O)C(O)C(O)C1O (centres undefined) ... 96.8
Cc1nc(O)nc(O)c1/C=C/C(=O)N[C@H]1[C@@H](O)[C@H](n2cnc3c(N(C)C)ncnc32)O[C@@H]1CO ... 95.7

Enquiry: // query level, % of control value for entry CSC1OC(C(NC(=O)/C=C/c2c(C)nc(O)nc2O)C(C)O)C(O)C(O)C1O (centres undefined)
Return: 93.4

====

# Test system: Pseudomonas aeruginosa
# assay.overview: The compound was tested for minimum inhibitory concentration required for inhibition of microbial growth in Pseudomonas aeruginosa at the Upjohn culture 6676
# Type: functional
measured.quantity: MIC

O=C(N[C@H](CO)[C@H](O)c1ccc([N+](=O)[O-])cc1)C(Cl)Cl ... 200 µg/mL
CCC[C@@H]1C[C@@H](C(=O)N[C@@H]([C@H]2O[C@H](SC)[C@H](O)[C@@H](O)[C@H]2O)[C@@H](C)O)N(C)C1 ... > 400 µg/mL
CSC1OC(C(NC(=O)C(Cl)Cl)C(C)O)C(O)C(O)C1O (stereo not given) ... > 400 µg/mL
Cc1nc(O)nc(O)c1/C=C/C(=O)NC(CO)C(O)c1ccc([N+](=O)[O-])cc1 (stereo not given) ... > 400 µg/mL

Alright, here's another molecule for you.
Enquiry: Data request, read-out MIC, for CSC1OC(C(NC(=O)/C=C/c2c(C)nc(O)nc2O)C(C)O)C(O)C(O)C1O (stereo not given)
Return: > 400 µg/mL

====

# assay.overview: The compound was tested for minimum inhibitory concentration required for inhibition of microbial growth in Salmonella schottmuelleri
# Assay type: functional
# MIC listing for each entry below

# count of solved cases: 5
CCC[C@@H]1C[C@@H](C(=O)N[C@@H]([C@H]2O[C@H](SC)[C@H](O)[C@@H](O)[C@H]2O)[C@@H](C)O)N(C)C1 ... > 800 µg/mL
O=C(N[C@H](CO)[C@H](O)c1ccc([N+](=O)[O-])cc1)C(Cl)Cl ... 6.25 µg/mL
CSC1OC(C(NC(=O)C(Cl)Cl)C(C)O)C(O)C(O)C1O (stereo unspecified) ... > 400 µg/mL
CSC1OC(C(NC(=O)/C=C/c2c(C)nc(O)nc2O)C(C)O)C(O)C(O)C1O (stereo unspecified) ... > 400 µg/mL
Cc1nc(O)nc(O)c1/C=C/C(=O)NC(CO)C(O)c1ccc([N+](=O)[O-])cc1 (stereo unspecified) ... > 400 µg/mL

Enquiry: // lookup MIC for CCCC1CC(C(=O)NC(CO)C(O)c2ccc([N+](=O)[O-])cc2)N(C)C1 (stereo unspecified)
Return: > 800 µg/mL
